# assay-details: Stability studies in human plasma
# Assay type: in vitro ADME
# measurement-parameters: human, plasma
readout-type: half-life at 2 μM

If you can, please state the reported half-life at 2 μM value of COc1ccc(C#N)cc1/C=C(\C#N)c1cn(C(=O)CN(C)C)c2ccc(Br)cc12 . ~1 h

---

# study-system: Human recombinant MKlp2 motor domain1-519, His tagged (Homo sapiens, UniProt O95235)
# Construct: Human recombinant MKlp2 motor domain1-519, His tagged; His; purchased Cytoskeleton MP05
# Sequence (O95235 1-519): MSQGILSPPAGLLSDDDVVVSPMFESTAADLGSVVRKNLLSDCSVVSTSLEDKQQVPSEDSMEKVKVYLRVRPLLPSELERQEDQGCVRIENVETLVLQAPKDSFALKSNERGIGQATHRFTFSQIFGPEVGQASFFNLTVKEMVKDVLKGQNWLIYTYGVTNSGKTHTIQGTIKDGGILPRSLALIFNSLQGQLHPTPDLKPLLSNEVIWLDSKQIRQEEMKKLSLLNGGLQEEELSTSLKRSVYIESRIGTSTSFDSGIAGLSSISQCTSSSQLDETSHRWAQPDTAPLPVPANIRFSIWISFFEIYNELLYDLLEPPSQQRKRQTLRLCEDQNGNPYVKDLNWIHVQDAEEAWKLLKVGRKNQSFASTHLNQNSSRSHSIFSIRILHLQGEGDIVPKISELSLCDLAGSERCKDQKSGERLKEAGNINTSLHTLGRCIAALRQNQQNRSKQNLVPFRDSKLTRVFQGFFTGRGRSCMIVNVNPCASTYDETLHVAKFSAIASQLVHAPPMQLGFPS
# assay-details: Microtubule stimulated ATPase activity of the MKlp2 motor domain (Kinesin ELIPA Assay Kit)
# Assay type: biochemical
# measurement-parameters: Table 3, 22° C., read-out: MKIp2 IC50
The label T is reserved for IC50 strictly under 400 nM; F covers values equal to or above it.

molecule | class-label
COc1ccc2[nH]cc(/C(C#N)=C/c3cnccc3OC)c2c1 [Example 12] | T

Input CCN(CC)c1ccncc1/C=C(\C#N)c1c[nH]c2ccc(Br)cc12 [Example 24] ; condition: IC50 strictly below 400 nM. Does it hold? F

Please determine if N#C/C(=C\c1cnccc1Sc1ccccc1)c1c[nH]c2ccc(Br)cc12 [Example 19] is below 400 nM in terms of IC50. T

Identify whether the molecule N#C/C(=C\c1cnccc1-c1ccc(C(F)(F)F)cc1)c1c[nH]c2ccc(Cl)cc12 [Example 26] records IC50 below 400 nM. F

Given CCSc1ccncc1/C=C(\C#N)c1c[nH]c2ccc(Br)cc12 [Example 16] , is recorded IC50 strictly lower than 400 nM? T

# TODO verify IC50 < 400 nM strictly for this molecule: N#C/C(=C\c1cnccc1-c1ccoc1)c1c[nH]c2ccc(Br)cc12 [Example 34] T

Regarding COc1ccncc1/C=C(\C#N)c1c[nH]c2cc(Br)ccc12 [Example 45] , kindly confirm whether its IC50 is beneath 400 nM. T

Given the entry N#C/C(=C\c1c[n+]([O-])ccc1-c1ccoc1)c1c[nH]c2ccc(Br)cc12 [Example 48] , would its reported IC50 be below 400 nM? F

Consider the molecule CN(C)c1ccc(C#N)cc1/C=C(\C#N)c1c[nH]c2ccc(Br)cc12 [Example 39] . Is its IC50 strictly less than 400 nM? T

Threshold test, IC50 < 400 nM: COc1cc[n+]([O-])cc1/C=C(\C#N)c1c[nH]c2ccc(Cl)cc12 [Example 49] F
